Items are presented alongside their recorded cell viability.
test system: WHIM2 (cells of a triple-negative basal-like breast cancer xenograft); assay: cell viability (% of vehicle); higher = less cytotoxic; conditions: 10 µM; 72 h;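 also: PDX cells carrying CMV promoter-driven luciferase, viability read as total photon flux per second by IVIS imaging following D-luciferin, vehicle control 0.1% DMSO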
Format: numeric value only, no unit, no commentary.

CCOC(=O)OC1(C(=O)OCCl)CCC2C3CCC4=CC(=O)C=CC4(C)C3C(O)CC21C (centres undefined) [Loteprednol etabonate]    105
Br.COc1ccc2c3c1O[C@H]1C[C@@H](O)C=C[C@@]31CCN(C)C2    79.7

// cell viability lookup, key: O=C(O)Cc1ccccc1Nc1c(Cl)cccc1Cl 87.4

Next record, please: CCCc1nc(C)c2c(=O)nc(-c3cc(S(=O)(=O)N4CCN(CC)CC4)ccc3OCC)[nH]n12 97.8

---

test system: HCI03 (cells of an ER-positive luminal breast cancer xenograft); test: cell viability (% of vehicle); higher = less cytotoxic; conditions: 10 µM; 72 h
quantity: cell viability
Respond with the number and no other words.

Some solved cases for reference:
CON=C(C(=O)NC1C(=O)N2C(C(=O)O)=C(CSC(=O)c3ccco3)CSC12)c1csc(N)n1.Cl (stereo unspecified) [Ceftiofur HCl]    132
C=CC[C@@H]1/C=C(\C)C[C@H](C)C[C@H](OC)[C@H]2O[C@@](O)(C(=O)C(=O)N3CCCC[C@H]3C(=O)O[C@H](/C(C)=C/[C@@H]3CC[C@@H](O)[C@H](OC)C3)[C@H](C)[C@@H](O)CC1=O)[C@H](C)C[C@@H]2OC [Tacrolimus (FK506)]    112
C#Cc1cccc(Nc2ncnc3cc(OCCOC)c(OCCOC)cc23)c1.Cl [Erlotinib Hydrochloride]    50
CC(=O)Nc1cccc(-n2c(=O)n(C3CC3)c(=O)c3c(Nc4ccc(I)cc4F)n(C)c(=O)c(C)c32)c1    94
Nc1cccc2c1CN(C1CCC(=O)NC1=O)C2=O (stereo unspecified) [Lenalidomide (CC-5013)]    107

// moving on: another record for cell viability
# cell viability lookup, item CCCCCC(O)C=CC1C(O)CC(=O)C1CCCCCCC(=O)O (stereo unspecified) [Alprostadil] 124

---

test system: HCI11 (cells of an ER-positive luminal breast cancer xenograft); assay: cell viability (% of vehicle); higher = less cytotoxic; conditions: 10 µM; 72 h
Structures can show the parent of a compound that is named as a salt.
Below, each entry is listed alongside its reported cell viability.

Cc1ccsc1C(=CCCN1CCC[C@@H](C(=O)O)C1)c1sccc1C [Tiagabine hydrochloride]    86.4
Clc1ccc(COC(Cn2ccnc2)c2ccc(Cl)cc2Cl)cc1.O=[N+]([O-])O (configuration not stated) [Econazole nitrate]    116
C[N+](C)(C)CC(O)CC(=O)[O-] [L-Carnitine inner salt]    95.7
Oc1c(Cl)cc(Cl)c2cccnc12 [Chloroxine]    69.7
CCCC(C(=O)OCCN(CC)CC)(c1ccccc1)c1ccccc1.Cl [SKF 525A (hydrochloride)]    66.3
CO[C@H]1/C=C/O[C@@]2(C)Oc3c(C)c(O)c4c(O)c(c5c(nc6cc(C)ccn65)c4c3C2=O)NC(=O)/C(C)=C\C=C\[C@H](C)[C@H](O)[C@@H](C)[C@H](O)[C@@H](C)[C@H](OC(C)=O)[C@@H]1C [Rifaximin (Xifaxan)]    98.8

// switching to the query molecule
Param item = CN(Cc1cnc2nc(N)nc(N)c2n1)c1ccc(C(=O)NC(CCC(=O)O)C(=O)O)cc1 (configuration not stated) [Methotrexate] ; retrieve measured cell viability. 113
